readout kind: melting point

Solved entries:
- molecule: "Cc1ccc(-c2ccc(Cl)cc2)c(C)c1C1=C(O)C2(CCC(C)CC2)NC1=O (stereo not drawn) [Ex. I-1-a-3]"
  melting point: "> 240 °C"
- molecule: "COC1CCC2(CC1)NC(=O)C(c1c(C)cc(C)c(-c3ccccc3)c1C)=C2O (stereo not drawn) [Ex. I-1-a-6]"
  melting point: "> 240 °C"
- molecule: "COc1cc(Cl)c(C2=C(O)C3(CCC(OC)CC3)NC2=O)cc1-c1ccccc1 (stereo not drawn) [Ex. I-1-a-13]"
  melting point: "134 °C"
- molecule: "Cc1ccc(-c2ccc(Cl)cc2)c(C)c1C1=C(O)C2(CCCOC2)NC1=O (stereo not drawn) [Ex. I-1-a-7]"
  melting point: "> 250 °C"
- molecule: "COC1CCC2(CC1)NC(=O)C(c1c(C)cc(C)c(-c3ccc(Cl)cc3)c1C)=C2O (stereo not drawn) [Ex. I-1-a-5]"
  melting point: "> 240 °C"

// switching to the query molecule
Recorded melting point of Cc1ccc(-c2ccccc2)c(C)c1C1=C(O)C2(CCC(C)CC2)NC1=O (stereo not drawn) [Ex. I-1-a-2] , please. > 240 °C

Reference for the values: patent US6806264B2
